experimental_system: Replicase polyprotein 1ab (Severe acute respiratory syndrome coronavirus, UniProt P0C6X7)
pIC50: −log10 of the molar value.
Criterion: pIC50 meeting or surpassing 6. Met: Criterion met. Not met: Criterion not met.

{"columns": ["compound", "class"],
 "data": [
  ["O=C(Sc1nnc(C(F)(F)F)[nH]1)C1CCC(C#Cc2ccccc2)O1 (stereo not drawn) [cmdc.202100576, 7c]", "Criterion not met"],
  ["CC(C)C[C@H]1C(=O)N[C@H](C=O)CCC(=O)NCCCn2cc(nn2)C[C@@H]1CC(=O)OCc1ccccc1 [cmdc.202100576, 16c]", "Criterion not met"],
  ["O=C1C(=O)N(Cc2ccc3ccccc3c2)c2ccc(C(=O)N3CCCCC3)cc21 [cmdc.202100576, 13f]", "Criterion not met"],
  ["O=C1C(=O)N(Cc2ccc3ccccc3c2)c2ccc(C(=O)N3CCCC3)cc21 [cmdc.202100576, 13e]", "Criterion not met"],
  ["Fc1ccc(SSc2nccs2)cc1 [cmdc.202100576, 17f]", "Criterion not met"],
  ["CC(C)[C@H](NC(=O)c1cc2ccccc2[nH]1)C(=O)N[C@@H](Cc1ccccc1)C(=O)N[C@H](C=O)CC1CCNC1=O (stereo partly drawn) [cmdc.202100576, 18d]", "Criterion met"],
  ["CC(C)(C)NC(=O)C(=O)[C@H](C[C@@H]1CCNC1=O)NC(=O)[C@H](CC1CCCCC1)NC(=O)[C@H](Cc1cccc2ccccc12)NC(=O)OCc1ccc(OCN2CCOCC2)cc1 [cmdc.202100576, 22b]", "Criterion met"],
  ["COc1cccc2[nH]c(C(=O)N[C@@H](CC(C)C)C(=O)N[C@@H](C[C@@H]3CCNC3=O)C(C)=O)cc12 [WO2006061714, P38.5]", "Criterion not met"],
  ["CC(C)C[C@@H](NC(=O)[C@H](Cc1cccc2ccccc12)NC(=O)OCc1ccccc1)C(=O)N[C@@H](C=O)CC1CCNC1=O (stereo partly drawn) [cmdc.202100576, 14e]", "Criterion met"],
  ["O=C[C@H](CC1CCNC1=O)NC(=O)[C@H](Cc1ccccc1)NC(=O)c1ccc2c(c1)OCO2 (stereo partly drawn) [cmdc.202100576, 18e]", "Criterion met"],
  ["Cc1cc(C(=O)N[C@@H](C)C(=O)N[C@H](C(=O)N[C@@H](CC(C)C)C(=O)N[C@H](C=CC(=O)OCc2ccccc2)C[C@@H]2CCNC2=O)C(C)C)no1 [the N3 Compound]", "Criterion not met"]
]}
